# maps each entry to its inhibition
target: Perilipin-5 (Homo sapiens) + 1-acylglycerol-3-phosphate O-acyltransferase ABHD5 (Homo sapiens) (UniProt Q00G26+Q8WTS1); test: ABHD5-PLIN5 interaction inhibitors, primary screen, cell lysate, split luciferase complementation, luminescence (AID 602281);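 also: 0% = DMSO only wells and the 100% control is not disclosed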; details: Split G. princeps luciferase complementation, 4 h, at 4 µM, stronger effect = higher value
Sequence (Q00G26 whole entry, looked up): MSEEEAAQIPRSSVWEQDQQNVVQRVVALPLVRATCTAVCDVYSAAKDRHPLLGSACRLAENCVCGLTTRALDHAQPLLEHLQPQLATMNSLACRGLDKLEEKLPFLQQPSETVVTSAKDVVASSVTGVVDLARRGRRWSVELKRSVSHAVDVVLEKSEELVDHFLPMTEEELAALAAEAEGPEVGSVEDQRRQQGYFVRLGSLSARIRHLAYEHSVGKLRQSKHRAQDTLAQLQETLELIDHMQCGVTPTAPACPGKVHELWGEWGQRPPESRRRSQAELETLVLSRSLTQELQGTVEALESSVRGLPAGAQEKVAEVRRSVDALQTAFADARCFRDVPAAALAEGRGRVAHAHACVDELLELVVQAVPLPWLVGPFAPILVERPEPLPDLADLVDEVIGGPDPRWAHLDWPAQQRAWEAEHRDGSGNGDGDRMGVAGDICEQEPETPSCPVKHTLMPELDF
Sequence (Q8WTS1 whole entry, looked up): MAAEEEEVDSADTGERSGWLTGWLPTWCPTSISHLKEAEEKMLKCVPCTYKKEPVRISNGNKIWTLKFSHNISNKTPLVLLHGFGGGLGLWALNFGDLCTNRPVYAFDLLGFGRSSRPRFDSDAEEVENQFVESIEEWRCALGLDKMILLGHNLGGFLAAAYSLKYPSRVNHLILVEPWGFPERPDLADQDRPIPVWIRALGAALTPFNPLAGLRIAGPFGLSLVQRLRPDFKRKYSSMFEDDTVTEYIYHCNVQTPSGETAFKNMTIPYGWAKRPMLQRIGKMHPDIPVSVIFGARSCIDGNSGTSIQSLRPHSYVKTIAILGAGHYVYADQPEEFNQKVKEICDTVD
Among all 360,000 compounds or so, about 2,900 (0.81%) were called active. What follows is part of a selection rich in actives, with near analogues and random picks from the rest.
Record the value in %, omitting the unit from your answer.

Worked cases, answers included:
{"columns": ["Compound", "inhibition [%]"],
 "data": [
  ["Cc1ccccc1/C=C\\c1nc(O)c([N+](=O)[O-])c(=O)[nH]1", 15.6],
  ["O=C1Cc2cc(S(=O)(=O)Nc3cccc(F)c3)ccc2N1", -4.67],
  ["CC(=O)N(c1ccc2oc(=O)sc2c1)S(=O)(=O)c1ccc(C)cc1", 36.7],
  ["O=C(NC1CCCCCCC1)c1cccs1", -5.96],
  ["Cc1ccc(C(c2sc3nc(C)nn3c2O)N2CCN(c3ccccc3)CC2)cc1 (configuration not stated)", 2.33]
]}

Consider the compound `CC(=O)Oc1ccc(N(C(C)=O)S(=O)(=O)c2ccc3ccccc3c2)cc1Br` . State its measured inhibition.
6.52

Consider the compound `Cc1cn(C)c(=O)n(C)c1=O` . State its measured inhibition.
-0.3

Consider the compound Oc1c(C(c2ccco2)N2CCC3(CC2)OCCO3)sc2ncnn12 (configuration not stated) . State its measured inhibition.
12.2

Consider the compound Cc1ccccc1C(CC(=O)c1cccs1)C(C#N)C#N (configuration not stated) . State its measured inhibition.
22.1

Consider the compound `C[C@H](NC(=O)c1[nH]cnc1C(=O)Nc1nccs1)c1ccccc1` . State its measured inhibition.
1.59

Consider the compound `COc1cc(/C=C/CO)cc(OC)c1O[C@@H]1O[C@H](CO)[C@@H](O)[C@H](O)[C@H]1O` . State its measured inhibition.
-1.15

Consider the compound COc1ccc(CNC(=O)C(c2ccc(O)cc2)N(Cc2ccco2)C(=O)c2snc(C(N)=O)c2N)cc1 (configuration not stated) . State its measured inhibition.
-11.3

Consider the compound `COc1ccc(/C=C/C(=O)c2ccc(NS(=O)(=O)c3ccc(C)cc3)cc2)cc1O` . State its measured inhibition.
46

Consider the compound `CN(CC(=O)Nc1cccc2c1CCCC2)S(=O)(=O)c1ccc(Cl)cc1` . State its measured inhibition.
4.76

Consider the compound OC1CSc2nc3ccccc3n2C1 (configuration not stated) . State its measured inhibition.
1.22

Consider the compound `CCCCN1C(N)=NC[C@@H]1CC1CCCCC1` . State its measured inhibition.
10.6

Consider the compound `COc1ccc(N(Cc2cc3ccc(C)cc3[nH]c2=O)S(=O)(=O)c2ccccc2)cc1` . State its measured inhibition.
-3.39

Consider the compound `COc1cc(CNCCN(C)C)ccc1OCc1c(F)cccc1Cl` . State its measured inhibition.
11.6

Consider the compound `CC[C@@H](C)[C@@H]1CN([C@@H](C)CN2CCC[C@H]2CN2C(N)=NC[C@H]2C(C)C)C(=N)N1CCc1ccc(Cl)c(Cl)c1` . State its measured inhibition.
11.4

Consider the compound CN(C)c1cccc(C(=O)N2CCC(n3nccc3NC(=O)C3CCOC3)CC2)c1 (configuration not stated) . State its measured inhibition.
-0.66

Consider the compound `COc1ccc(S(=O)(=O)Nc2ccc3oc(C)c(C(C)=O)c3c2)cc1` . State its measured inhibition.
4.01

Consider the compound CC1(C(=O)NS(=O)(=O)c2ccccc2)CCN1C(=O)C/C=C/c1ccccc1 (configuration not stated) . State its measured inhibition.
11

Consider the compound `NC(=S)Nc1c(Cl)cccc1Cl` . State its measured inhibition.
-3.54

Consider the compound `CCc1ccccc1NC(=O)c1cc(-c2ccc3c(c2)OCO3)on1` . State its measured inhibition.
-4.14

Consider the compound Cc1cc(C)c(NC(=O)CN2C(=O)NC(Cc3ccccc3)C2=O)c(C)c1 (configuration not stated) . State its measured inhibition.
3.3

Consider the compound CCn1cc(C(=O)N2CC(C)CC(C)C2)c(=O)c2cc(S(=O)(=O)N3CCCC3)ccc21 (configuration not stated) . State its measured inhibition.
-1.5

Consider the compound CCN1CCN(C(=O)C2CCCN(S(=O)(=O)c3ccc(OC)c(OC)c3)C2)CC1 (configuration not stated) . State its measured inhibition.
7.45

Consider the compound `CN(C)CCCNC(=O)/C=C/c1ccc(OCc2c(F)cccc2Cl)cc1` . State its measured inhibition.
28.6
